Molecular target: rhVAP-1 (Homo sapiens (Human), UniProt Q16853)
Sequence (Q16853 whole entry): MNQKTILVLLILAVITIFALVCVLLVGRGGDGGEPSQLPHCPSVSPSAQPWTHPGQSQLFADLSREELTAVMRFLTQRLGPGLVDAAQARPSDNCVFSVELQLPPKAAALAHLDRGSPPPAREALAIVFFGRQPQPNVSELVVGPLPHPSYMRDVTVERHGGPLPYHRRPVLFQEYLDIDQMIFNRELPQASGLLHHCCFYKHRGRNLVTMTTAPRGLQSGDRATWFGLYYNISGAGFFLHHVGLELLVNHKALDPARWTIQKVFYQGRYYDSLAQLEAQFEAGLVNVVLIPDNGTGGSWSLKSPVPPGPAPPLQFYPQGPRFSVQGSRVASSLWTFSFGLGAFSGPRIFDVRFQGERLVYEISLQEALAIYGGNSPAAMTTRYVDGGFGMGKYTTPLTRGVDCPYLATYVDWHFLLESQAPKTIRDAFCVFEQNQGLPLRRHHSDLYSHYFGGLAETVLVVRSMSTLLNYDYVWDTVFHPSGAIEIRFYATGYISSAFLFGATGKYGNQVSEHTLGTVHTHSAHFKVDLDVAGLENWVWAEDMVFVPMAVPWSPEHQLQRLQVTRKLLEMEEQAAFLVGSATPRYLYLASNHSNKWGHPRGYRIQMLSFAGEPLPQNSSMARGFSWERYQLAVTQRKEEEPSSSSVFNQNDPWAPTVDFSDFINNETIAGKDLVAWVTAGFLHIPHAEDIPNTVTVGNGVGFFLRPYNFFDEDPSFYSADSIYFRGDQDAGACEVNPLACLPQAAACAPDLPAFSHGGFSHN
Experiment: Time-dependent inhibition assay for the rhVAP-1 enzyme
Format: biochemical
Conditions: pre-incubation 12 minutes
MEASUREMENT_LABEL: IC50 (nM)

COMPOUND	TESTED_ON	MEASUREMENT_LABEL	UNITS_TEXT	RECORDED_MEASUREMENT
NC/C(=C/F)COc1ccc2c(n1)CCN(C1CC1)C2=O [Trifluoroacetate of Compound 23]	rhVAP-1 (Homo sapiens (Human), UniProt Q16853)	IC50	nM	12.5

###

Assay: Stability test in human liver microsome
Type: in vitro ADME
Conditions: human liver microsome 0.5 mg protein/mL, compound 1 μM, β-NADPH
Where a name gives a salt, the structure may show the parent alone.

COMPOUND	ClH [mL/min/kg]
Cl.NC/C(=C\F)COc1ccc2c(c1)CN(C1CC1)C2=O [Hydrochloride of Compound 16]	0.18
Cl.NC/C(=C/F)COc1ccc2c(c1)CN(C1CC1)C2=O [Hydrochloride of Compound 29]	4.18
NC/C(=C\F)COc1cc2c(cn1)C(=O)N(C1CC1)CC2 [Compound 22]	2.94
NC/C(=C/F)COc1ccc2c(n1)CCN(C1CC1)C2=O [Compound 23]	4.63
NC/C(=C\F)COc1ccc2c(c1)CCN(C1CC1)C2=O [Hydrochloride of Compound 5]	4.63
Cl.NC/C(=C\F)COc1cc2c(cn1)C(=O)N(C1CC1)C2 [Hydrochloride of Compound 21]	4.95

###

Target: UniProt Q16853
Assay: Time-dependent inhibition assay for the rhVAP-1 enzyme
Assay type: biochemical
Conditions: pre-incubation 3 minutes

COMPOUND	IC50 (µM)
NC/C(=C/F)COc1ccc2c(n1)CCN(C1CC1)C2=O [Trifluoroacetate of Compound 23]	0.0186

###

Biological target: rhVAP-1 (Homo sapiens (Human), UniProt Q16853)
Assay: Time-dependent inhibition assay for the rhVAP-1 enzyme
Format: biochemical
Conditions: pre-incubation 9 minutes
Method: Biological example 4: Time-dependent inhibition assay for the rhVAP-1 enzyme After incubation of the test substances at corresponding time intervals according to Table 4, the activity was measured at each time point in the same manner as in the rhVAP-1 enzymatic test method of biological example 1. […]

COMPOUND	IC50, nM
NC/C(=C/F)COc1ccc2c(n1)CCN(C1CC1)C2=O [Trifluoroacetate of Compound 23]	14

###

Structures can show the parent of a compound that is named as a salt.
Reported log10 IC50 values, MAO-B (Homo sapiens (Human)).
MEASUREMENT_LABEL: log10 IC50 (log10 of the value in µM)

COMPOUND	log10 IC50
NC/C(=C\F)COc1cnc2c(c1)CN(C1CC1)C2=O [Hydrochloride of Compound 27]	1.58
NC/C(=C/F)COc1ccc2c(n1)CCN(C1CC1)C2=O [Trifluoroacetate of Compound 23]	1.28
Cl.NC/C(=C\F)COc1ccc2c(c1)CN(C1CC1)C2=O [Hydrochloride of Compound 16]	0.45
NC/C(=C\F)COc1ccc2c(c1)C(=O)N(C1CC1)C2=O [Hydrochloride of Compound 30]	0.76
NC/C(=C/F)COc1cc2c(cn1)C(=O)N(C1CC1)CC2 [Trifluoroacetate of Compound 32]	0.82
Cl.NC/C(=C/F)COc1ccc2c(c1)CN(C1CC1)C2=O [Hydrochloride of Compound 29]	0.61
